Here, each record is paired with measured normalized growth data.
assay: chemical genetic growth profiling, strain panel (AID 1159580);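 note: tested at 20 µM; growth read once vehicle control cultures reached saturation at 30 °C; 1 = growth at the plate median or of vehicle wells; lower values mean less growth of the strain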; conditions: S. cerevisiae deletion strains, growth OD, locus YDL134C, strain PPH21, active compounds read low
Among all 5,500 compounds or so, about 2,000 (36%) were called active. About 18% were inconclusive and are not listed. Some of the results follow.
Please reply with the number alone, leaving off any unit.

Nc1ccc(S(=O)(=O)Nc2cnc3ccccc3n2)cc1 :: 1.01
Cc1cn([C@H]2C[C@H](N=[N+]=[N-])[C@@H](CO)O2)c(=O)[nH]c1=O :: 1

As a next step, examine the compound that follows.
Qu. Dear colleague, I am looking for the recorded normalized growth of the following compound: Cc1ccc(-c2cc(C(F)(F)F)nn2-c2ccc(S(N)(=O)=O)cc2)cc1
Ans. 0.999

---

experiment: chemical genetic growth profiling, strain panel (AID 1159580); settings: S. cerevisiae deletion strains, growth OD, locus YML120C, strain ndi1, active compounds read low
About 2,000 (36%) of roughly 5,500 compounds were called active. Another 18% or so got no clear call; they are omitted. This is one part of the list.
property_measured: normalized growth

Examples with their reported normalized growth follow.
Nc1ccc(S(=O)(=O)c2ccc(N)cc2)cc1 :: 0.999 (inactive)
C[C@@H]1OC(O[C@H]2C(O[C@H]3CC[C@@]4(C)C(CC[C@]5(C)C4CC=C4C6CC(C)(C)CC[C@]6(C(=O)O)CC[C@]45C)[C@]3(C)CO)OC[C@H](O)[C@@H]2O)[C@H](O)[C@H](O)[C@H]1O (stereo partly drawn) :: 0.0572 (active)
C[C@@H]1CC[C@H]2[C@@H](C)C(=O)O[C@@H]3O[C@@]4(C)CC[C@@H]1[C@]32OO4 :: 0.839 (active)
Clc1ccccc1C(c1ccccc1)(c1ccccc1)n1ccnc1 :: 0.058 (active)
C#C[C@]1(O)CCC2C3CCC4=CC(=O)CC[C@@H]4C3CC[C@@]21CC (stereo partly drawn) :: 1.01 (inactive)

Qu. Dear colleague, I am looking for the recorded normalized growth of the following compound: CC1OC(=O)C(C(C)C)NC(=O)C(C(C)C)OC(=O)C(C(C)C)NC(=O)C(C)OC(=O)C(C(C)C)NC(=O)C(C(C)C)OC(=O)C(C(C)C)NC(=O)C(C)OC(=O)C(C(C)C)NC(=O)C(C(C)C)OC(=O)C(C(C)C)NC1=O (stereo not drawn)
Ans. 0.389 (active)

Qu. Dear colleague, I am looking for the recorded normalized growth of the following compound: N=C(N)SCCN
Ans. 0.999 (inactive)

Qu. Dear colleague, I am looking for the recorded normalized growth of the following compound: O=c1[nH]cc(F)c(=O)[nH]1
Ans. 0.464 (active)

---

Here, each record is paired with measured normalized growth data.
assay: chemical genetic growth profiling, strain panel (AID 1159580); conditions: S. cerevisiae deletion strains, growth OD, locus YNL271C, strain bni1, active compounds read low
Screen size: about 5,500 compounds; about 2,000 (36%) were called active. Not shown: some 18% with an inconclusive outcome. The list shows a part of the results.

Examples with their reported normalized growth follow.
COC(=O)Nc1nc2ccc(Sc3ccccc3)cc2[nH]1 :: 1.01 (inactive)
Cc1cc(O)c2c(c1)Cc1cccc(O)c1C2=O :: 1.01 (inactive)
C[C@@H]1CC[C@H]2[C@@H](C)C(=O)O[C@@H]3O[C@@]4(C)CC[C@@H]1[C@]32OO4 :: 0.883 (active)
Cc1cc(O)cc(O)c1C(=O)O :: 0.98 (inactive)

Qu. Dear colleague, I am looking for the recorded normalized growth of the following molecule: COC(=O)Nc1nc2ccc(C(=O)c3ccccc3)cc2[nH]1
Ans. 1.01 (inactive)

Qu. Dear colleague, I am looking for the recorded normalized growth of the following molecule: CO[C@@]12[C@@H]3NC3CN1C1=C(C(=O)C(N)=C(C)C1=O)[C@@H]2COC(N)=O (some centres undefined)
Ans. 0.979 (inactive)

Qu. Dear colleague, I am looking for the recorded normalized growth of the following molecule: C[C@@H]1CC[C@H]2[C@@H](C)C(O)O[C@@H]3O[C@@]4(C)CC[C@@H]1[C@]32OO4 (some centres undefined)
Ans. 0.505 (active)

Qu. Dear colleague, I am looking for the recorded normalized growth of the following molecule: Cc1cc(C(C)(C)C)c(O)c(C(C)(C)C)c1
Ans. 1 (inactive)

Qu. Dear colleague, I am looking for the recorded normalized growth of the following molecule: NC(Cc1c[nH]c2ccccc12)C(=O)O (centres undefined)
Ans. 1.01 (inactive)

---

assay: chemical genetic growth profiling, strain panel (AID 1159580); conditions: S. cerevisiae strains, growth OD, strain wild type, active compounds read low
The whole screen tested about 5,500 compounds, of which about 2,000 (36%) were called active. Roughly 18% stayed inconclusive and do not appear here. This is one part of the list.
Assign labels as follows, please: MET for normalized growth below 1; NOT MET for normalized growth equal to or exceeding 1.

As a guide, the following entries are already answered.
CC1=CCC2C3(C)C1=CC(=O)OC3CC1C(C)(C)CC(O)C(O)C12C (stereo not drawn) :: NOT MET
CSC(=CC(=O)c1ccc(Cl)cc1)SC :: MET

Qu. I'd appreciate it if you could check whether COc1cccc(-c2nc(C#N)c(N)o2)c1 has normalized growth smaller than 1.
Ans. MET

Qu. I'd appreciate it if you could check whether O=C1ON=C(CSc2ccccc2)/C1=C/c1ccc(Cl)cc1 has normalized growth smaller than 1.
Ans. MET

Qu. I'd appreciate it if you could check whether C#C[C@]1(O)CCC2C3CCC4=C(CCC(=O)C4)C3CC[C@@]21C (stereo partly drawn) has normalized growth smaller than 1.
Ans. NOT MET

Qu. I'd appreciate it if you could check whether Cc1cccc(NC(=S)NC2CC3C=CC2C3)c1 (stereo not drawn) has normalized growth smaller than 1.
Ans. MET

Qu. I'd appreciate it if you could check whether N[C@H](C(=O)O)[C@@H]1CC(Cl)=NO1 has normalized growth smaller than 1.
Ans. MET

---

Here, each record is paired with measured normalized growth data.
assay: chemical genetic growth profiling, strain panel (AID 1159580);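 note: tested at 20 µM; growth read once vehicle control cultures reached saturation at 30 °C; 1 = growth at the plate median or of vehicle wells; lower values mean less growth of the strain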; details: S. cerevisiae deletion strains, growth OD, locus YOL006C, strain TOP1, active compounds read low
Among all 5,500 compounds or so, about 2,000 (36%) were called active. Not shown: some 18% with an inconclusive outcome. The list shows a part of the results.
Please reply with the number alone, leaving off any unit.

Nc1ccc(S(=O)(=O)Nc2cnc3ccccc3n2)cc1 :: 0.997
COc1ccc2c3c([nH]c2c1)C(C)=NCC3 :: 1.02

Qu. Dear colleague, I am looking for the recorded normalized growth of the following molecule: C/C=C(/C)C(=O)O[C@@H]1[C@H](OC(C)=O)[C@@]2(CO)C(CC1(C)C)C1=CCC3[C@@]4(C)CC[C@H](O[C@@H]5O[C@H](C(=O)O)[C@@H](O[C@@H]6O[C@H](CO)[C@@H](O)[C@H](O)[C@H]6O)[C@H](O)[C@H]5O[C@@H]5O[C@H](CO)[C@@H](O)[C@H](O)[C@H]5O)[C@](C)(CO)C4CC[C@@]3(C)[C@]1(C)C[C@H]2O (stereo partly drawn)
Ans. 0.991

Qu. Dear colleague, I am looking for the recorded normalized growth of the following molecule: C=C/C(C)=C\CC1C(C)(O)CCC2C(C)(C)CCCC21C (stereo not drawn)
Ans. 0.128

Qu. Dear colleague, I am looking for the recorded normalized growth of the following molecule: Cc1ccc(-c2cc(C(F)(F)F)nn2-c2ccc(S(N)(=O)=O)cc2)cc1
Ans. 1

---

Here, each record is paired with measured normalized growth data.
assay: chemical genetic growth profiling, strain panel (AID 1159580);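 note: tested at 20 µM; growth read once vehicle control cultures reached saturation at 30 °C; 1 = growth at the plate median or of vehicle wells; lower values mean less growth of the strain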; settings: S. cerevisiae deletion strains, growth OD, locus YJR016C, strain ILV3, active compounds read low
In all, about 5,500 compounds went through this assay and about 2,000 (36%) were called active. Inconclusive results (about 18%) are left out. The list shows a part of the results.

C=CCc1c(CCC)nc(-c2ccccn2)[nH]c1=O :: 0.94 (inactive)
O=S(=O)(c1ccc(Cl)cc1)N(Cc1cccnc1)Cc1ccc(Cl)cc1Cl :: 0.949 (inactive)

As a next step, examine the molecule that follows.
Qu. Dear colleague, I am looking for the recorded normalized growth of the following molecule: O=C(c1cccs1)N(Cc1cccnc1)Cc1ccc(Cl)cc1Cl
Ans. 0.971 (inactive)

---

Here, each record is paired with measured normalized growth data.
experiment: chemical genetic growth profiling, strain panel (AID 1159580);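 note: tested at 20 µM; growth read once vehicle control cultures reached saturation at 30 °C; 1 = growth at the plate median or of vehicle wells; lower values mean less growth of the strain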; conditions: S. cerevisiae deletion strains, growth OD, locus YDL185W, strain tfp1, active compounds read low
The campaign covered roughly 5,500 compounds. About 2,000 (36%) were called active. Inconclusive results (about 18%) are left out. The list shows a part of the results.
Please reply with the number alone, leaving off any unit.

Examples with their reported normalized growth follow.
Cc1ccc(-c2cc(C(F)(F)F)nn2-c2ccc(S(N)(=O)=O)cc2)cc1 :: 1.02
O=c1cc(CO)occ1O :: 1.03

As a next step, examine the molecule that follows.
Qu. Dear colleague, I am looking for the recorded normalized growth of the following molecule: CCCCCCCCCCCC[C@H](C(=O)O)[C@@H](C)C(=O)O
Ans. 1.03

Every entry's value here was drawn from PubChem BioAssay AID1159580.
